Data origin, for the record: patent US20130034585A1

# assay_system: bovine TAP1 (bovine)
# experiment_description: cell-based or functional assay
We begin with a simple list: items and their reported peptide transport at 8 hpi relative to BHV-1 wt-infected MDBK cells.
Write down the numeric answer in fold and omit the unit.

Here's what some known entries look like.
[
  {
    "binder": "BHV-1 UL49.5 CT-null (other) DPLLDAMRREGAMDFWSAGCYARGVPLSEPPQALVVFYVALTAVMVAVALYAYGLCF",
    "val": 2.5
  },
  {
    "binder": "BHV-1 UL49.5Δ30-32 (other) DPLLDAMGAMDFWSAGCYARGVPLSEPPQALVVFYVALTAVMVAVALYAYGLCFRLMGASGPNKKESRGRG",
    "val": 4
  }
]

# next binder below
Output measured peptide transport at 8 hpi relative to BHV-1 wt-infected MDBK cells for this item: BHV-1 UL49.5 30AAA32 (other) DPLLDAMAAAGAMDFWSAGCYARGVPLSEPPQALVVFYVALTAVMVAVALYAYGLCFRLMGASGPNKKESRGRG
4
